- Target or test system: Bromodomain-containing protein 7 (Homo sapiens)
- Sequence (Q9NPI1 whole entry, the tested form may be a part): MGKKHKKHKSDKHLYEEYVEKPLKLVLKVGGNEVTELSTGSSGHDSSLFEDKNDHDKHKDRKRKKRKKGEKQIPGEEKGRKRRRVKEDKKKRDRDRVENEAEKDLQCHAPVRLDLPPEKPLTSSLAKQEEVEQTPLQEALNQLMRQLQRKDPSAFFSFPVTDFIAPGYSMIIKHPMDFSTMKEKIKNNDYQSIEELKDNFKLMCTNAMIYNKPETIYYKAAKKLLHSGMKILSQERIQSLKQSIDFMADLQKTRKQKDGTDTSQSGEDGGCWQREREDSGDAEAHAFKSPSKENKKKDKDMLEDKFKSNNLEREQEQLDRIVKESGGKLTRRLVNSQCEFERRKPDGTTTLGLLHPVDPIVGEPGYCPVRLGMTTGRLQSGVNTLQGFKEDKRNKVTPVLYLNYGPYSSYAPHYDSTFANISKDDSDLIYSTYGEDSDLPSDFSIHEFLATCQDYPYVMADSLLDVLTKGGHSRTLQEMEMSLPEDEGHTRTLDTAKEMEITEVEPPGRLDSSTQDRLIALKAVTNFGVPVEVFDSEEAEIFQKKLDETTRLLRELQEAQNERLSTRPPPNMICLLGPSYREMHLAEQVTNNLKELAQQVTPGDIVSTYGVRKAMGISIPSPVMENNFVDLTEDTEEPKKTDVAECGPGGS
- Test details: Inhibition of human BRD7 (L125 to R254 residues) expressed in mammalian expression system by BROMOscan assay
pIC50: −log10 of the molar value.
Measurement kind: pIC50

- Item smiles: "Cn1cc(-c2cc(S(C)(=O)=O)ccc2Oc2ccc(F)cc2F)c2cc[nH]c(=O)c21"
  Measurement kind: "pIC50"
  Reported result: "< 6.00"
- Item smiles: "Cc1[nH]c(-c2cc(NS(C)(=O)=O)ccc2Oc2ccccc2)c2c1C(=O)CCC2"
  Measurement kind: "pIC50"
  Reported result: "< 6.00"

====

- Target or test system: Protein polybromo-1 (Homo sapiens, UniProt Q86U86)
- Sequence (Q86U86 whole entry, the tested form may be a part): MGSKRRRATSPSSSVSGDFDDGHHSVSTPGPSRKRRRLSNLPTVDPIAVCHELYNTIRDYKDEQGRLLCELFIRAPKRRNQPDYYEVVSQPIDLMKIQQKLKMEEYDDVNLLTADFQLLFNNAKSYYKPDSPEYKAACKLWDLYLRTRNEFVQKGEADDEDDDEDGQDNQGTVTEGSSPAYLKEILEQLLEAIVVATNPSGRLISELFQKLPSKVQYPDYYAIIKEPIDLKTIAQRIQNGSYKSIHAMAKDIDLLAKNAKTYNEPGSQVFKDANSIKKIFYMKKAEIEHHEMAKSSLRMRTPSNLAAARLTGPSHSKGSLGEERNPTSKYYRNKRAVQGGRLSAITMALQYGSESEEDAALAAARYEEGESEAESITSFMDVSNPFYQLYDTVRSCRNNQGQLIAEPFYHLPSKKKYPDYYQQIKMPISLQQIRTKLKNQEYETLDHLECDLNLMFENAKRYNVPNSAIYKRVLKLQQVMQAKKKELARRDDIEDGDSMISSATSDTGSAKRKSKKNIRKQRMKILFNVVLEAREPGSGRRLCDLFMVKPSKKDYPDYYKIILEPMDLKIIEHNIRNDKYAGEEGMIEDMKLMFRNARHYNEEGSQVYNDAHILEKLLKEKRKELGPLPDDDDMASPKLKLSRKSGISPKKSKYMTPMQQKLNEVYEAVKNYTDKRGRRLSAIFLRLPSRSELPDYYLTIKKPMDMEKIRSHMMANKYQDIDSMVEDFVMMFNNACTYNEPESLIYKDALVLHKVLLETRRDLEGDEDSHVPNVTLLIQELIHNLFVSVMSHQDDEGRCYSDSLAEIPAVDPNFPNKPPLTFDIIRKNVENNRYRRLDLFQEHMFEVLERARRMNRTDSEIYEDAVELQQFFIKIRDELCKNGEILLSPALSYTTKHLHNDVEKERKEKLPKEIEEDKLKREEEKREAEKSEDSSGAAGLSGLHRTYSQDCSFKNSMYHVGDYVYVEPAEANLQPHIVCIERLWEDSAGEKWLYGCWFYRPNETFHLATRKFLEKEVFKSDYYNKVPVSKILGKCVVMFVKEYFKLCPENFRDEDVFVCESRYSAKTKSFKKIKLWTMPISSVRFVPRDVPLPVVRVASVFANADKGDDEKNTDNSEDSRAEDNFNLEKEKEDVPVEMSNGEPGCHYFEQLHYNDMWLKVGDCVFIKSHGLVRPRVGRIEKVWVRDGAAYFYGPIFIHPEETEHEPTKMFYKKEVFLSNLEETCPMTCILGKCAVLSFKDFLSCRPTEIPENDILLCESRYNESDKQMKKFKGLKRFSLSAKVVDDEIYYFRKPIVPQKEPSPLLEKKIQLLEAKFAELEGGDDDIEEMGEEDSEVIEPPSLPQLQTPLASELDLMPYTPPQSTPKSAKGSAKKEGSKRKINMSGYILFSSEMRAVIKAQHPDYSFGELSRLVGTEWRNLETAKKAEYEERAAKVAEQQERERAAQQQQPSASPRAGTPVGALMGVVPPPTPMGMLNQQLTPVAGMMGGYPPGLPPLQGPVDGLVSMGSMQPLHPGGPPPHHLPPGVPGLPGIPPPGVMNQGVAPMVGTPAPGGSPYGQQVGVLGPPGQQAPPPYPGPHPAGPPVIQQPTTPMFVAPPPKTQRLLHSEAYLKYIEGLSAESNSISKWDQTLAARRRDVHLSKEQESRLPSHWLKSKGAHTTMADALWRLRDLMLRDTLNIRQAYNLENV
- Test details: Inhibition of human PBRM1 bromodomain 2 (S178 to E291 residues) expressed in bacterial expression system by BROMOscan assay
pIC50: −log10 of the molar value.
Measurement kind: pIC50

- Item smiles: "Cc1[nH]c(-c2cc(NS(C)(=O)=O)ccc2Oc2ccccc2)c2c1C(=O)CCC2"
  Measurement kind: "pIC50"
  Reported result: "< 5.00"
- Item smiles: "Cc1[nH]c(-c2cc(S(C)(=O)=O)ccc2Oc2ccc(F)cc2F)c2c1C(=O)NCC2"
  Measurement kind: "pIC50"
  Reported result: "< 5.00"
- Item smiles: "Cn1cc(-c2cc(S(C)(=O)=O)ccc2Oc2ccc(F)cc2F)c2cc[nH]c(=O)c21"
  Measurement kind: "pIC50"
  Reported result: "< 5.00"

====

- Target or test system: Bromodomain-containing protein 4 (Homo sapiens)
- Test details: Inhibition of BRD4 (unknown origin) expressed in human H1299 cells co-expressing HPV16-LCR/E2 after 24 hrs by Bright Glo-luciferase reporter gene assay
Field 'label' (enum: 1 / 0). Set to 1 when EC50 is strictly under 0.3 µM; else 0.

- Item smiles: "Cc1[nH]c(-c2cc(NS(C)(=O)=O)ccc2Oc2ccc(F)cc2F)c2c1C(=O)CCC2"
  Qualitative label: 1
- Item smiles: "Cc1[nH]c(-c2c(N)cccc2Oc2ccccc2)cc1C(N)=O"
  Qualitative label: 0
- Item smiles: "Cn1cc(-c2cc(CS(C)(=O)=O)ccc2Oc2ccc(F)cc2F)c2cc[nH]c(=O)c21"
  Qualitative label: 1
- Item smiles: "Cc1[nH]c(-c2ccccc2Oc2ccccc2)c2cc[nH]c(=O)c12"
  Qualitative label: 0

====

Here, each record is paired with measured pIC50 data.
- Target or test system: Bromodomain and WD repeat-containing protein 1 (Homo sapiens, UniProt Q9NSI6)
- Sequence (Q9NSI6 whole entry, the tested form may be a part): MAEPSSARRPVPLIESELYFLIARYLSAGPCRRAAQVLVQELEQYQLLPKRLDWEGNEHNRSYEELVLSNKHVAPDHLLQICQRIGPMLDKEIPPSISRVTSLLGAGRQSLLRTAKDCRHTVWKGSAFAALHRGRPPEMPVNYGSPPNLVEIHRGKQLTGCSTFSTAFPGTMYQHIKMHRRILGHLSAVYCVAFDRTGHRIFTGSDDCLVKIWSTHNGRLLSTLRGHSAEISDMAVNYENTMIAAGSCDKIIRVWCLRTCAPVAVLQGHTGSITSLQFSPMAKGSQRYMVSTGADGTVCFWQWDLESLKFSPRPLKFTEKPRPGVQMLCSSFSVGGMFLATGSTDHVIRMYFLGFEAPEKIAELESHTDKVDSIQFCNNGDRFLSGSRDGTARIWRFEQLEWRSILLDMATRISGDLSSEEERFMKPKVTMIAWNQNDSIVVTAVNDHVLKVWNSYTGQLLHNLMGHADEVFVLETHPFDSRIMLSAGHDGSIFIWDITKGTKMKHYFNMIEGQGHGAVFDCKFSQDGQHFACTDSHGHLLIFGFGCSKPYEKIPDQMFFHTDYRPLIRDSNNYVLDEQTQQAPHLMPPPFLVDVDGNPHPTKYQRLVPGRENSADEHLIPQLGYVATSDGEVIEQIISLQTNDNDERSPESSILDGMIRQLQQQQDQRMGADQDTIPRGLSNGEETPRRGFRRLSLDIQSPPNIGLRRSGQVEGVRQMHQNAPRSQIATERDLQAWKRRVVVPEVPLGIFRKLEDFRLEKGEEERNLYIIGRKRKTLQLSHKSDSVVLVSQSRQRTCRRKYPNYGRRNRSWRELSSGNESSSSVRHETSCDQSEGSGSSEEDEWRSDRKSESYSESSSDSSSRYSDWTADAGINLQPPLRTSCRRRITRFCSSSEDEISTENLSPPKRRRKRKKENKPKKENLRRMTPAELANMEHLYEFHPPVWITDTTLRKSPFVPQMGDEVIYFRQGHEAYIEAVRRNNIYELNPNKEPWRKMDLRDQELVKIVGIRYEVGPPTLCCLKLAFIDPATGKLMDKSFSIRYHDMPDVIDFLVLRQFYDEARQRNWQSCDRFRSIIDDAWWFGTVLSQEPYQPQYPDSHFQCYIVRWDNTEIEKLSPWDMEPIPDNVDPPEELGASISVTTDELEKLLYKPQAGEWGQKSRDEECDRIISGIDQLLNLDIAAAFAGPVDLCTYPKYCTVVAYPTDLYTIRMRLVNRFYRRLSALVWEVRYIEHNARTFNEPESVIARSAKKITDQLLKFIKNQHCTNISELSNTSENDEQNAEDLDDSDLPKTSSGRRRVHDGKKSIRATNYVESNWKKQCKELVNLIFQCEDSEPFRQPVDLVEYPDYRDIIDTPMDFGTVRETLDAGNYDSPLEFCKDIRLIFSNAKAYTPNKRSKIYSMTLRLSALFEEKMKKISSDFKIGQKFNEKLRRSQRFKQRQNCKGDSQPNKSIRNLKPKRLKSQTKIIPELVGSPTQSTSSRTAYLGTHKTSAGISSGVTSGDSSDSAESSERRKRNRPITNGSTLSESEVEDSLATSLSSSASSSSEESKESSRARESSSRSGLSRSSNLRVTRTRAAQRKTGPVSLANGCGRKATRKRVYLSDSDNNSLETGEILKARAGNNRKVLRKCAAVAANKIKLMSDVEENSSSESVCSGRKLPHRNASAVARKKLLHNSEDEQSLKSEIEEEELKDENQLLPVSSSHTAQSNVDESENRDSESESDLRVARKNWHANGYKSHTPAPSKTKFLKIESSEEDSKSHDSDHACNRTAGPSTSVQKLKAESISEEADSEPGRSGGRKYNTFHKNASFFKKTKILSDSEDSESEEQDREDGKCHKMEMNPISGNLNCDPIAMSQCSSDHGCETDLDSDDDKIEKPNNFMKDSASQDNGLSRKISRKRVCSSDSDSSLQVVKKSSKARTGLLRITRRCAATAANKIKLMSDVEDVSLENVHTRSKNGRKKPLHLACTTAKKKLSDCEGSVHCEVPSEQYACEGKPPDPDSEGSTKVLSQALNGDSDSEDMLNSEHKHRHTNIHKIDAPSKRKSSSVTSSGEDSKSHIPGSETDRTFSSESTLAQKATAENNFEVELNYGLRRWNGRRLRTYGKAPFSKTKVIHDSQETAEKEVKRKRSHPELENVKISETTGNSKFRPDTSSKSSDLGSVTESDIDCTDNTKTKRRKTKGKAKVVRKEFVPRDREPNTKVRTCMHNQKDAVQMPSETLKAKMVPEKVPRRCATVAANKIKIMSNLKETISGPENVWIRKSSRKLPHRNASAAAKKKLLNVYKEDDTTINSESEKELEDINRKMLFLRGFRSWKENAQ
- Test details: Inhibition of human WDR9 bromodomain 2 (A1310 to E1430 residues) expressed in bacterial expression system by BROMOscan assay
pIC50: −log10 of the molar value.

- Item smiles: "Cn1cc(-c2cc(S(C)(=O)=O)ccc2Oc2ccc(F)cc2F)c2cc[nH]c(=O)c21"
  pIC50: "< 5.00"
- Item smiles: "Cc1[nH]c(-c2cc(S(C)(=O)=O)ccc2Oc2ccc(F)cc2F)c2c1C(=O)NCC2"
  pIC50: "< 5.00"
- Item smiles: "Cc1[nH]c(-c2cc(NS(C)(=O)=O)ccc2Oc2ccccc2)c2c1C(=O)CCC2"
  pIC50: 5.00

====

- Test details: Permeability of the compound
- Assay type: physicochemical
- Run parameters: not told; read-out: permeability
Each entry below carries its recorded Papp.
Measurement kind: Papp (×10⁻⁶ cm/s)

- Item smiles: "Cn1cc(-c2ccccc2Oc2ccccc2)c2cc[nH]c(=O)c21"
  Measurement kind: "Papp"
  Reported result: 13
- Item smiles: "Cn1cc(-c2cc(S(C)(=O)=O)ccc2Oc2ccc(F)cc2F)c2cc[nH]c(=O)c21"
  Measurement kind: "Papp"
  Reported result: 35
- Item smiles: "Cc1[nH]c(-c2cc(S(C)(=O)=O)ccc2Oc2ccc(F)cc2F)c2cn[nH]c(=O)c12"
  Measurement kind: "Papp"
  Reported result: 12
- Item smiles: "Cc1[nH]c(-c2ccccc2Oc2ccccc2)c2nc[nH]c(=O)c12"
  Measurement kind: "Papp"
  Reported result: 100
- Item smiles: "Cc1[nH]c(-c2cc(S(C)(=O)=O)ccc2Oc2ccc(F)cc2F)c2c1C(=O)NCC2"
  Measurement kind: "Papp"
  Reported result: 22
- Item smiles: "Cn1cc(-c2cc(CS(C)(=O)=O)ccc2Oc2ccc(F)cc2F)c2cc[nH]c(=O)c21"
  Measurement kind: "Papp"
  Reported result: 40

====

# CL free listing for each entry below
- Tested on: Liver
- Test details: Unbound intrinsic clearance in mouse liver microsomes
- Type: ADME, microsome
Measurement kind: CL free

- Item smiles: "Cc1[nH]c(-c2cc(NS(C)(=O)=O)ccc2Oc2ccc(F)cc2F)c2cn[nH]c(=O)c12"
  Measurement kind: "CL free"
  Reported result: "> 250 mL/min/kg"
- Item smiles: "Cc1[nH]c(-c2cc(S(C)(=O)=O)ccc2Oc2ccc(F)cc2F)c2c1C(=O)NCC2"
  Measurement kind: "CL free"
  Reported result: "< 115 mL/min/kg"
- Item smiles: "Cc1[nH]c(-c2ccccc2Oc2ccccc2)c2nc[nH]c(=O)c12"
  Measurement kind: "CL free"
  Reported result: "> 6170 mL/min/kg"
